tested-system: WDR5 (Homo sapiens (Human), UniProt P61964)
assay-procedure: Surface Plasmon Resonance (SPR) assay, KD and residence time
Format: binding
particulars: surface plasmon resonance (SPR); read-out: WDR5 binding affinity (KD)
measured-quantity: Kd (nM)

CC1CN(c2nccc(-c3cc(NC(=O)c4c[nH]c(=O)cc4C(F)(F)F)c(N4C[C@@H](C)N(C)[C@@H](C)C4)cc3F)n2)CCO1 (stereo in doubt) = 0.712
C[C@@H]1CN(c2ccc(-c3cc(NC(=O)c4c[nH]c(=O)cc4C(F)F)c(N4CCN(C)[C@@H](C)C4)cc3F)cn2)CCO1 = 0.947
C[C@@H]1CN(c2cc(F)c(-c3ccc4ncn(C)c4c3)cc2NC(=O)c2cn(C)c(=O)cc2C(F)F)C[C@H](C)N1C = 39.3
C[C@@H]1CN(c2cc(F)c(-c3ccc(N4CCOCC4)c(F)c3)cc2NC(=O)c2cn(C)c(=O)cc2C(F)F)C[C@H](C)N1C = 9.03
C[C@@H]1CN(c2cc(F)c(C3=CCCN(c4ncc(CN(C)C)cn4)C3)cc2NC(=O)c2c[nH]c(=O)cc2C(F)(F)F)C[C@H](C)N1C = 0.658
C[C@@H]1CN(c2cc(F)c(-c3ncc(CN4CCOCC4)s3)cc2NC(=O)c2c[nH]c(=O)cc2C(F)(F)F)C[C@H](C)N1C = 8.27

1. CNC(=O)c1ccc(-c2cc(NC(=O)c3c[nH]c(=O)cc3C(F)F)c(N3C[C@@H](C)N(C)[C@@H](C)C3)cc2F)cc1F
2. CC(C)COC(=O)N1CC=C(c2cc(NC(=O)c3c[nH]c(=O)cc3C(F)(F)F)c(N3C[C@@H](C)N(C)[C@@H](C)C3)cc2F)C1
-- ask Select the item with the higher value of Kd from the options 1 and 2 listed. Bench note: the answer is the label of the chosen record.
-- reply 2

---

tested-system: WDR5 (Homo sapiens (Human))
assay-procedure: Surface Plasmon Resonance (SPR) assay, KD and residence time
Assay type: binding
particulars: surface plasmon resonance (SPR); read-out: WDR5 binding affinity (KD)
pKd: −log10 of the molar value.
measured-quantity: pKd

Known results for compounds:
CC1CN(c2cc(F)c(C3=CCCN(c4ncc(C#N)s4)C3)cc2NC(=O)c2ccc(F)cc2C(F)(F)F)CCN1C (stereo in doubt) [Example 689] = 8.20
CC1CN(c2cc(F)c(-c3cc(F)c(C(N)=O)c(F)c3)cc2NC(=O)c2ccc(F)cc2C(F)(F)F)CCN1C (stereo in doubt) [Example 657] = 8.33
C[C@@H]1CN(c2cc(F)c(-c3cc(F)c(C(N)=O)c(F)c3)cc2NC(=O)c2ccc(F)cc2C(F)(F)F)C[C@H](C)N1C [Example 656] = 8.26
C[C@@H]1CN(c2ncc(-c3cc(NC(=O)c4cn(C)c(=O)cc4C(F)(F)F)c(N4C[C@@H](C)N(C)[C@@H](C)C4)cc3F)cn2)CCO1 [Example 640] = 8.76
CC1CN(c2cc(F)c(C3=CCCN(c4ncc(C=O)cn4)C3)cc2NC(=O)c2ccc(F)cc2C(F)(F)F)CCN1C (stereo in doubt) [Example 650] = 8.29
CCN(C)[C@@H]1CCN(c2cc(F)c(-c3cnc(N4C[C@@H](C)O[C@@H](C)C4)nc3)cc2NC(=O)c2cn(C)c(=O)cc2C(F)(F)F)C1 (racemic) [Example 427] = 8.25
COCCCN(C)C1CCN(c2cc(F)c(-c3cnc(N4CCOCC4)nc3)cc2NC(=O)c2c[nH]c(=O)cc2C(F)(F)F)C1 (stereo not drawn) [Example 572] = 6.95
C[C@@H]1CN(c2cc(F)c(-c3csc(C(=O)N(C)C4CCCCC4)n3)cc2NC(=O)c2cn(C)c(=O)cc2C(F)(F)F)C[C@H](C)N1C [Example 526] = 8.31

P. C[C@@H]1CN(c2nccc(-c3cc(NC(=O)c4ccc(F)cc4C(F)(F)F)c(N4CCN(C)[C@@H](C)C4)cc3F)n2)CCO1 [Example 738]
Q. C[C@@H]1CN(c2cc(F)c(-c3cc(F)c(C(=O)N(C)C4COC4)c(F)c3)cc2NC(=O)c2c[nH]c(=O)cc2C(F)(F)F)C[C@H](C)N1C [Example 763]
-- ask Select the item with the higher value of pKd from the options P and Q listed. Bench note: the answer is the label of the chosen record.
-- reply Q

Where do the numbers come from? From patent US11319299B2.
